For each record, write down the corresponding koff.
Molecular target: Tim-3 (form used in the assay not stated) (human, UniProt Q8TDQ0 22-202, limits assumed)
Sequence (Q8TDQ0 22-202 R140L limits assumed): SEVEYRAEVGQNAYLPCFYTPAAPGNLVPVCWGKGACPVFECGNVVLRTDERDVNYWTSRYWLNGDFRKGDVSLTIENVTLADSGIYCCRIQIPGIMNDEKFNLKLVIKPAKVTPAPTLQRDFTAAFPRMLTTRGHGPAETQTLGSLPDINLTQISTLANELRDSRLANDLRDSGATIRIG
Assay: SPR, Fab, Test 1
One number for each entry, in s⁻¹.

Go through the items and report each one's koff.
1. hu425-1-1 Fab (Fab, V domains shown, Fab prepared from the mAb with the Pierce Fab Preparation Kit) VH: EVQLVESGGGLVQPGGSLRLSCAASGFTFSRYAMSWVRQAPGKGLEWVAAISSGGSLYFPDSVKGRFTISRDNAKNSCYLQMNSLRAEDTAVYYCARGREADGGYFDYWGQGTLVTVSS VL: DIVLTQSPATLSVSPGERATLSCRASESVEYYGTSLMQWYQQKPGQAPRLLIYAASNVESGVPARFSGSGSGTDFTLTISSLQSEDFAVYYCQQSMKVPLTFGGGTKVEIKR
2. hu425-2-3b Fab (Fab, V domains shown, Fab prepared from the mAb with the Pierce Fab Preparation Kit; Only the variable domains are tied to the name) VH: EVQLVESGGGLVQPGGSLRLSCAASGFTFSRYAMSWVRQAPGKGLEWVAAISSGGSLYYPDSVKGRFTISRDNAKNTLYLQMNSLRAEDTAVYYCARGREADGGYFDYWGQGTLVTVSS VL: EIVLTQSPATLSVSPGERATLSCRASESVEYYGTSLMQWYQQKPGQAPRLLIYAASNVESGIPARFSGSGSGTEFTLTISSLQSEDFAVYYCQQSLKVPLTFGGGTKVEIK
3. hu425-2-2 Fab (Fab, V domains shown, Fab prepared from the mAb with the Pierce Fab Preparation Kit; Only the variable domains are tied to the name. hu425s were engineered in the human IgG1 format) VH: EVQLVESGGGLVQPGGSLRLSCAASGFTFSRYAMSWVRQAPGKGLEWVAAISSGGSLYYPDSVKGRFTISRDNAKNTLYLQMNSLRAEDTAVYYCARGREADGGYFDYWGQGTLVTVSS VL: EIVMTQSPATLSVSPGERATLSCRASESVEYYGTSLMQWYQQKPGQAPRLLIYAASNVESGIPARFSGSGSGTEFTLTISSLQSEDFAVYYCQQSLKVPLTFGGGTKVEIK
4. ch425 Fab (Fab, V domains shown, Fab prepared from the mAb with the Pierce Fab Preparation Kit) VH: EVKLVESGGGLVKPGGSLKLSCAASGFTFSRYAMSWVRQIPEKRLEWVAAISSGGSLYFPDSVKGRFTISRDNARNICYLQMNSLRSDDTAMYYCARGREADGGYFDYWGQGTTLTVSS VL: DIVLTQSPASLAVSLGQRATISCRASESVEYYGTSLMQWYQQKPGQPPKLLIYAASNVESGVPARFSGSGSGTDFSLNIHPVEEDDIAMYFCQQSMKVPLTFGAGTKLELKR

output:
0.000108
0.00057
0.00074
0.000204
